# procedure_summary: ATG_TGFb_CIS: Attagene CIS-FACTORIAL HepG2 Assay for human Transforming Growth Factor (TGF) (AID 2282967)
# test_settings: HepG2 Attagene CIS TGFb reporter, mRNA transcription; actives raise or lower the signal
Calls of active or inactive are those of the source. The calls were made as follows: active = hit-call score of the fitted dose curve at least 0.9, where 1 is the maximum; inactive = score below 0.9.
Answer with one of the outcomes given here: t (active), f (inactive)

Asked: In this assay, the call recorded for "CC(C)(O)CCc1ccccc1" was what?
Given back: f

Asked: In this assay, the call recorded for "CCCC1CCC(=O)CC1" was what?
Given back: f

Asked: In this assay, the call recorded for "CCCCC/C=C\C=C\C(=O)OCC" was what?
Given back: t

Asked: In this assay, the call recorded for "O=S(=O)(O)CCCN1CCOCC1" was what?
Given back: f

Asked: In this assay, the call recorded for "CC(=O)c1ccc(C)cc1" was what?
Given back: f

Asked: In this assay, the call recorded for CCC(C)(CCCC(C)C)OC(C)=O (stereo not given) was what?
Given back: f

Asked: In this assay, the call recorded for COC(=O)C(C)Oc1ccc(Oc2ncc(C(F)(F)F)cc2Cl)cc1 (stereo not given) was what?
Given back: t

Asked: In this assay, the call recorded for "O=C1OC2(c3ccc(O)cc3Oc3cc(O)ccc32)c2ccccc21" was what?
Given back: f

Asked: In this assay, the call recorded for "CC(C)(CO)CO" was what?
Given back: f

Asked: In this assay, the call recorded for "C1=COCCC1" was what?
Given back: f

Asked: In this assay, the call recorded for "O=C(O)c1cccc(Cl)n1" was what?
Given back: f

Asked: In this assay, the call recorded for "CC1=CC[C@@H]2C[C@H]1C2(C)C" was what?
Given back: f

Asked: In this assay, the call recorded for "NC(=O)NC(N)=O" was what?
Given back: f

Asked: In this assay, the call recorded for "C=C(C)C(=O)OCCC[Si](OC)(OC)OC" was what?
Given back: f

Asked: In this assay, the call recorded for CC(=O)C1C(=O)C=C(C)OC1=O (stereo not given) was what?
Given back: f

Asked: In this assay, the call recorded for "CC1(C)[C@H](C=C(Cl)Cl)[C@H]1C(=O)OCc1cccc(Oc2ccccc2)c1" was what?
Given back: f

Asked: In this assay, the call recorded for "Cc1ccncc1" was what?
Given back: f

Asked: In this assay, the call recorded for "C=C(C)C(N)=O" was what?
Given back: f

Asked: In this assay, the call recorded for CCC(C)COC(=O)CC(C)C (stereo not given) was what?
Given back: f

Asked: In this assay, the call recorded for "CC(CO)(CO)[N+](=O)[O-]" was what?
Given back: f
